Ref: patent US20090285798A1

- study_target: VI829 pseudovirus envelope (HIV-1)
- assay_explanation: cell-based or functional assay
This section presents binders with their documented EC50, single-cycle HIV-1 pseudovirus infection of GHOST cells (luciferase) values.
Hey, just the number and the unit after it is fine.

For the binder shown here, XNLHFCQLRCKSLGLLGRCAXTXCACV (not fully specified; N-terminal thiopropionic acid (TPA) at position 1; (D)Pro at 21; para-cyclo-pentylethoxyphenylalanine (U2) at 23; C-terminal amide) [CD4M48_U2] , give the reported EC50, single-cycle HIV-1 pseudovirus infection of GHOST cells (luciferase).
98 nM

For the binder shown here, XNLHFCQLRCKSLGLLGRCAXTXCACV (not fully specified; N-terminal thiopropionic acid (TPA) at position 1; (D)Pro at 21; para-cyclo-hexylmethoxyphenylalanine (U1) at 23; C-terminal amide) [CD4M48_U1] , give the reported EC50, single-cycle HIV-1 pseudovirus infection of GHOST cells (luciferase).
11 nM

For the binder shown here, XNLHFCQLRCKSLGLLGRCAXTFCACV (not fully specified; N-terminal thiopropionic acid (TPA) at position 1; (D)Pro at 21; C-terminal amide, optimized mini-protein, Phe at 23; unlabelled monomer; also called B4T) [CD4M48] , give the reported EC50, single-cycle HIV-1 pseudovirus infection of GHOST cells (luciferase).
755 nM

For the binder shown here, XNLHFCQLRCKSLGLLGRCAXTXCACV (not fully specified; N-terminal thiopropionic acid (TPA) at position 1; (D)Pro at 21; Phe(para-[phenyl-ethoxy]) (U3) at 23; C-terminal amide) [CD4M48_U3] , give the reported EC50, single-cycle HIV-1 pseudovirus infection of GHOST cells (luciferase).
950 nM

For the binder shown here, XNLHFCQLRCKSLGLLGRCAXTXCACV (not fully specified; N-terminal thiopropionic acid (TPA) at position 1; (D)Pro at 21; biphenylalanine (Bip) at 23; C-terminal amide) [CD4M47] , give the reported EC50, single-cycle HIV-1 pseudovirus infection of GHOST cells (luciferase).
1200 nM
